Recorded values, source patent US20030229005A1.

EXPERIMENTAL SYSTEM: gelatinase B (UniProt P14780 107-707, limits assumed)
Sequence (P14780 107-707 limits assumed): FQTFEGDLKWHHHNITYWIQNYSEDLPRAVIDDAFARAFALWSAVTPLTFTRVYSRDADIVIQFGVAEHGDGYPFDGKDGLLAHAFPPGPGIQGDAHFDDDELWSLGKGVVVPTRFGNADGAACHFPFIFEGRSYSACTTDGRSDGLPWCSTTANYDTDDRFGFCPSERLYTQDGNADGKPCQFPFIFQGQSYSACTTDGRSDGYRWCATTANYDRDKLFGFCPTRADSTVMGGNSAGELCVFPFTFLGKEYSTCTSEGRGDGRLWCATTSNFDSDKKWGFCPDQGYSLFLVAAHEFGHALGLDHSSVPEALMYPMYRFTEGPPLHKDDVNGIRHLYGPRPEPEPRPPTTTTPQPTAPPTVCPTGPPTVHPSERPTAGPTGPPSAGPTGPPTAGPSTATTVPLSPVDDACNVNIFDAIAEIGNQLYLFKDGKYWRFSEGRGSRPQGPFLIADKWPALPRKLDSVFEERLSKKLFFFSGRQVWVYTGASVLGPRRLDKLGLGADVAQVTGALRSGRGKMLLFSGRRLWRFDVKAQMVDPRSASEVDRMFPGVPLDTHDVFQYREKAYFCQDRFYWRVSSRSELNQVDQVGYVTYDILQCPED
ASSAY TEXT: cell-based or functional assay
*1 amine or outer side, *2 acyl side, *3 side chain or, on linkers, in order; H or OH if unused. [ ]: non-standard residue; d: D form. The star is where a group is joined. Dnp = O=[N+]([O-])c1ccc(*)c([N+](=O)[O-])c1; C(Me) = CSC[C@H](N[*:1])C(=O)[*:2]
PARAMETER MEASURED: Selectivity v. Coll-3

1) Dnp-GPLPLHG[C(Me)]-NH2 (SMILES CSC[C@H](NC(=O)CNC(=O)[C@H](Cc1c[nH]cn1)NC(=O)[C@H](CC(C)C)NC(=O)[C@@H]1CCCN1C(=O)[C@H](CC(C)C)NC(=O)[C@@H]1CCCN1C(=O)CNc1ccc([N+](=O)[O-])cc1[N+](=O)[O-])C(N)=O) [Dnp-GPLPLHGC(Me)-NH2] = 10 unitless
2) Dnp-V[C(Me)]PKGITS[C(Me)]VFR-NH2 (SMILES CC[C@H](C)[C@H](NC(=O)CNC(=O)[C@H](CCCCN)NC(=O)[C@@H]1CCCN1C(=O)[C@H](CSC)NC(=O)[C@@H](Nc1ccc([N+](=O)[O-])cc1[N+](=O)[O-])C(C)C)C(=O)N[C@H](C(=O)N[C@@H](CO)C(=O)N[C@@H](CSC)C(=O)N[C@H](C(=O)N[C@@H](Cc1ccccc1)C(=O)N[C@@H](CCCNC(=N)N)C(N)=O)C(C)C)[C@@H](C)O) [Dnp-VC(Me)PKGITSC(Me)VFR-NH2] = 1 unitless
3) Dnp-GPSGIHV-NH2 (SMILES CC[C@H](C)[C@H](NC(=O)CNC(=O)[C@H](CO)NC(=O)[C@@H]1CCCN1C(=O)CNc1ccc([N+](=O)[O-])cc1[N+](=O)[O-])C(=O)N[C@@H](Cc1c[nH]cn1)C(=O)N[C@H](C(N)=O)C(C)C) [Dnp-GPSGIHV-NH2] = 17 unitless
4) Dnp-GPRPFRG-NH2 (SMILES N=C(N)NCCC[C@H](NC(=O)[C@H](Cc1ccccc1)NC(=O)[C@@H]1CCCN1C(=O)[C@H](CCCNC(=N)N)NC(=O)[C@@H]1CCCN1C(=O)CNc1ccc([N+](=O)[O-])cc1[N+](=O)[O-])C(=O)NCC(N)=O) [Dnp-GPRPFRG-NH2] = 4 unitless
